biological target: CYP2D6 (Homo sapiens); construct: pre-incubation of the human liver microsomes with the test compound; tissue Corning; host or cells: human liver microsomes; assay: CYP inhibition / time-dependent inhibition, CYP2D6_Dextromethorphan; assay type: in vitro ADME; details: role: inhibitor; Table 9; read-out: CYP inhibition IC50 CYP2D6
Sequence (P10635 whole entry): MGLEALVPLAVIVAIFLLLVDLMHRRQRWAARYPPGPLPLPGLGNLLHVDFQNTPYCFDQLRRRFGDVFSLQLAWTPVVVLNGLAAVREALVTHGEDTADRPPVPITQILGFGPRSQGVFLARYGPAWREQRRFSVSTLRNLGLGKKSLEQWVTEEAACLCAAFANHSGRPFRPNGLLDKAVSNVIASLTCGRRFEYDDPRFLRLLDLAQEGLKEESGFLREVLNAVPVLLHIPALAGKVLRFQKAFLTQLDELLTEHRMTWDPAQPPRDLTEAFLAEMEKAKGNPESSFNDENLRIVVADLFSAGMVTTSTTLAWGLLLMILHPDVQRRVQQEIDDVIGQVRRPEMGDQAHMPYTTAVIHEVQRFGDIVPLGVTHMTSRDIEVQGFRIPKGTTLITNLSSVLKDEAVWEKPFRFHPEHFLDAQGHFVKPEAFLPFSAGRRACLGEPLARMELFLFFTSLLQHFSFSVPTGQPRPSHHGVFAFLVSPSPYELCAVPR
pIC50: −log10 of the molar value.
TEST_READOUT: pIC50

// pIC50 value for O=C(Cc1nccc(-n2cc(Cl)c3cc(Cl)cc(Cl)c32)n1)NC1COCC1O (stereo not shown) [Compound 760] : < 4.30

* * *

Biological target: hKv7.3/5 (Homo sapiens, UniProt O43525+Q9NR82)
Construct: expressed in transfected cells; host or cells: CHO
Sequence (O43525 whole entry): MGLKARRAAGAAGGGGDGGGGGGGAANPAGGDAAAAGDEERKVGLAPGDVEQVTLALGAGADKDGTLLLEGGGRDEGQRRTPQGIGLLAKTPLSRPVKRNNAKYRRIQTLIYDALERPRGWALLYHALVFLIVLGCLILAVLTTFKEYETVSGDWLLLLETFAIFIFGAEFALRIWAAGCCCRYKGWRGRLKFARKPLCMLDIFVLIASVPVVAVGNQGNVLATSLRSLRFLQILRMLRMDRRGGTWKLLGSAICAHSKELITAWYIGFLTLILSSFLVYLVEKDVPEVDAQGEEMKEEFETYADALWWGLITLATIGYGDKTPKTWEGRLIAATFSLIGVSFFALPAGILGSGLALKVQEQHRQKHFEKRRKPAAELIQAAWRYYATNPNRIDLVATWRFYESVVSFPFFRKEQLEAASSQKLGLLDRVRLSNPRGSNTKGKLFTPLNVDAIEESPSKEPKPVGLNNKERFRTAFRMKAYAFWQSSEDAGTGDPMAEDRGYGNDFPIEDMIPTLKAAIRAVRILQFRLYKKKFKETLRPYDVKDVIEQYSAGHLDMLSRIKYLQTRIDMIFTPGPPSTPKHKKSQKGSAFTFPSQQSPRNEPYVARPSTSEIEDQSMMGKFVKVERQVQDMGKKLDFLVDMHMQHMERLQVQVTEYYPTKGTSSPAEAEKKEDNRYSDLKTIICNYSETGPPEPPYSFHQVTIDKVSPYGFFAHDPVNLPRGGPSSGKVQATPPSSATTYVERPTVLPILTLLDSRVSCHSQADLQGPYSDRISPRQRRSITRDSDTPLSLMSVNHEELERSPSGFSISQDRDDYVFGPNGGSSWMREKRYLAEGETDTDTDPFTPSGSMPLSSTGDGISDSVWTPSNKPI
Sequence (Q9NR82 whole entry): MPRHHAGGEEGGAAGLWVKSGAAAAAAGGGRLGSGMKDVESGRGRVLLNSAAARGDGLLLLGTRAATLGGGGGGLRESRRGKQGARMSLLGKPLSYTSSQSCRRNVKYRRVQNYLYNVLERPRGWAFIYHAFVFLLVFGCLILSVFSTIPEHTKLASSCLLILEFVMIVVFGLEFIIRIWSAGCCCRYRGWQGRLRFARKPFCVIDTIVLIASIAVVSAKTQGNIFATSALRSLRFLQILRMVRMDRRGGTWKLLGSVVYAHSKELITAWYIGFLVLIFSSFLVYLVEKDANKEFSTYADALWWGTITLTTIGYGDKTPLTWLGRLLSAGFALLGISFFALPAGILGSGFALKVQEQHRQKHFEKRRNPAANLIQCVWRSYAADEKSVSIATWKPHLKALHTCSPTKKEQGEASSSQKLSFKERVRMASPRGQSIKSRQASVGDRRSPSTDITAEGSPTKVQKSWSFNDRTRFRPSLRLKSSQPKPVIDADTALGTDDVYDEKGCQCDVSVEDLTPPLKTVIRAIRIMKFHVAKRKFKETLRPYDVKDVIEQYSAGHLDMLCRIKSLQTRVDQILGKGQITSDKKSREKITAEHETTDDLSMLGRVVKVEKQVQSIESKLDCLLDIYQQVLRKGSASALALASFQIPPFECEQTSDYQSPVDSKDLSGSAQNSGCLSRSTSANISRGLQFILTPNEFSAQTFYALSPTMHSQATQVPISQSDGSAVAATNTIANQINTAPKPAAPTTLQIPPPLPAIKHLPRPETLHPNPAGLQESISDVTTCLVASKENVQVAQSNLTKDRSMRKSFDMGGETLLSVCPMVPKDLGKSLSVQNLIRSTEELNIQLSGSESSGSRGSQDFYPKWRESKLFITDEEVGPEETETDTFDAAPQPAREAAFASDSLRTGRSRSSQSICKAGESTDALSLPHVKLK
Test: Kv7.3/5 HCS, FLIPR potassium assay
Format: cell-based
Details: read-out: Kv7.3/5 EC50 HCS
Procedure: Cell culture: Chinese hamster ovary (CHO) cell-line cells were cultured in F-12 nutrient mixture (Biological Industries) supplemented with 10% fetal bovine serum with 1% penicillin-streptomycin (Biological Industries) in a humidified 5% CO2 incubator at 37° C. To express the appropriate gene either Kv7.3/5, Kv7.4 or TRPA1 5 μg plasmid was transfected using Amaxa, DT-133 program, with p-3 Kit. […]
TEST_READOUT: EC50

Example entries and their recorded answers appear below.
1) O=C(Cc1cncc(-n2cc(Cl)c3cc(Cl)cc(Cl)c32)c1)N[C@@H]1COC[C@H]1O: 40.9 µM
2) Cc1cn(-c2ccc(F)c(CC(=O)NCC(C)(C)O)c2)c2c(Cl)cc(Cl)cc12: 3 µM

// next item, EC50 requested
// EC50 value for O=C(Cc1cc(-n2cc(Cl)c3cc(Cl)cc(Cl)c32)ccc1F)NCCO : > 0.6 µM

* * *

target: hKv7.3/5 (Homo sapiens, UniProt O43525+Q9NR82); construct: expressed in transfected cells; host or cells: CHO; assay: Kv7.3/5 HCS, FLIPR potassium assay; format: cell-based; settings: Thallium ions (Tl+) fluorescence; read-out: hKv7.3/5 EC50
TEST_READOUT: pEC50
Give only the number. pEC50 is defined as minus log10 of concentration in molar units.

// pEC50 value for O=C(Cc1nccc(-n2cc(Cl)c3cc(Cl)cc(Cl)c32)n1)NC1COCC1O (stereo not shown) : 4.97

* * *

molecular target: hTRPV1 (Homo sapiens, UniProt Q8NER1); construct: CDS of NM_080704.4, inserted into the multiple cloning site of pcDNA3.1(+); host or cells: CHO/hKv7.2/3; assay: TRPV1 HCS, Fluo-8 calcium flux, capsaicin activation, CHO cells expressing hTRPV1; format: cell-based; conditions: cells expressing TRPV1; read-out: TRPV1 IC50
Sequence (Q8NER1 whole entry): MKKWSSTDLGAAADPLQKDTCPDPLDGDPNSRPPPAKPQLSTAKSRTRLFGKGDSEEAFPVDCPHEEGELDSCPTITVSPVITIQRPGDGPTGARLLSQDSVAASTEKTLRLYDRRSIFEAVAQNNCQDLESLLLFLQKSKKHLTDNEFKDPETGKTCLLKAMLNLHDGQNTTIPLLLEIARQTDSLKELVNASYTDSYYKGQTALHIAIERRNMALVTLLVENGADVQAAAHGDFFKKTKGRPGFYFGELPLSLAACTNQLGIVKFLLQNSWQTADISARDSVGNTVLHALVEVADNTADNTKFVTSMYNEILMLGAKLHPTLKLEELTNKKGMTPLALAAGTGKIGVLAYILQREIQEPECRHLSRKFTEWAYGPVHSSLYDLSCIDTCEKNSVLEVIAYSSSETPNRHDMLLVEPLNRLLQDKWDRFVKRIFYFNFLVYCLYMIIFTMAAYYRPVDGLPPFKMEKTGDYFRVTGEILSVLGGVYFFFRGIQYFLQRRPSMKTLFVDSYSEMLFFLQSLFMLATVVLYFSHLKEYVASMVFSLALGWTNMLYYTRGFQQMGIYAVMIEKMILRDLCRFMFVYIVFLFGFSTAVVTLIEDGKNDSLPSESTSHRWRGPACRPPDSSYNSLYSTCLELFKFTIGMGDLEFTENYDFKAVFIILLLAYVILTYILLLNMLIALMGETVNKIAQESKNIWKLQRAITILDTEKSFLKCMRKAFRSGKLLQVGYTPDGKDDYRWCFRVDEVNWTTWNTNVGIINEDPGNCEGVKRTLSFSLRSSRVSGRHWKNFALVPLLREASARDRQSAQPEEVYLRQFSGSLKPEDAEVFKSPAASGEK
TEST_READOUT: pIC50
Give only the number. pIC50 is defined as minus log10 of concentration in molar units.

Example entries and their recorded answers appear below.
1) CC(C)c1cc(Cl)cc(Cl)c1C(=O)c1ccc(F)c(CC(=O)NCC2(O)CCC2)c1: 5.00
2) COC[C@@H](CO)NC(=O)Cc1cc(Sc2c(Cl)cc(Cl)cc2C(C)C)ccc1F: 5.96
3) CC(C)c1cc(Cl)cc(Cl)c1C(=O)c1ccc(F)c(CC(=O)NCC2(O)CC2)c1: 5.52

// pIC50 value for Cc1cn(-c2ccc(F)c(CC(=O)NCCO)c2)c2c(Cl)cc(Cl)cc12 : 6.00

* * *

assay: Plasma protein binding, rat; assay type: in vitro ADME; details: read-out: PPB fu (rat)
TEST_READOUT: fraction unbound at 4 h, 2 µM
// no unit string in output, number only

Example entries and their recorded answers appear below.
1) O=C(Cc1cc(-n2cc(Cl)c3cc(Cl)cc(Cl)c32)ccc1F)NCCO [Compound 627]: 0.0004
2) Cc1cn(-c2ccc(F)c(CC(=O)NCC(C)(C)O)c2)c2c(Cl)cc(Cl)cc12 [Compound 421]: 0.0004

// next item, fraction unbound at 4 h, 2 µM requested
// fraction unbound at 4 h, 2 µM value for O=C(Cc1cncc(-n2cc(Cl)c3cc(Cl)cc(Cl)c32)c1)N[C@@H]1COC[C@H]1O [Compound 661] : 0.0029

* * *

Test: Rat liver microsome metabolic stability
Format: in vitro ADME
Details: rat liver microsomes; read-out: RLM T1/2
Description: Liver microsomes which are subcellular particles derived from endoplasmic reticulum of hepatic cells were used for evaluating the tested compounds. These particles are rich in drug metabolizing enzymes, including the cytochrome p-450 family. Liver microsomes are a recommended test system for various in vitro drug metabolism and pharmacokinetics (DMPK) studies. […] Liver Microsome Metabolic Stability Assay (NADPH): The liver microsome stability assay was evaluated through pre-incubation with HLMs. […]
TEST_READOUT: half-life at 1 µM (min)
Value expressed in min; do not type the unit.

Example entries and their recorded answers appear below.
1. O=C(Cc1nccc(-n2cc(Cl)c3cc(Cl)cc(Cl)c32)n1)NC1COCC1O (centres unmarked): 11.9
2. O=C(Cc1cncc(-n2cc(Cl)c3cc(Cl)cc(Cl)c32)c1)N[C@@H]1COC[C@H]1O: 4.7
3. CC(C)c1cc(Cl)cc(Cl)c1Nc1ccc(F)c(CC(=O)NCC(C)(C)O)c1 [NH91, reference compound]: 2.5

// half-life at 1 µM value for Cc1cn(-c2ccc(F)c(CC(=O)NCC(C)(C)O)c2)c2c(Cl)cc(Cl)cc12 : 14.1

// half-life at 1 µM value for O=C(Cc1cc(-n2cc(Cl)c3cc(Cl)cc(Cl)c32)ccc1F)NCCO : 39.3

* * *

biological target: CYP2C19 (Homo sapiens); construct: pre-incubation of the human liver microsomes with the test compound; tissue Corning; host or cells: human liver microsomes; assay: CYP inhibition / time-dependent inhibition, CYP2C19_S-Mephenytoin; type: in vitro ADME; conditions: role: inhibitor; (+)NADPH pre-incubation; substrate S-mephenytoin; read-out: IC50 (+)NADPH CYP2C19_S-Mephenytoin
Sequence (P33261 whole entry): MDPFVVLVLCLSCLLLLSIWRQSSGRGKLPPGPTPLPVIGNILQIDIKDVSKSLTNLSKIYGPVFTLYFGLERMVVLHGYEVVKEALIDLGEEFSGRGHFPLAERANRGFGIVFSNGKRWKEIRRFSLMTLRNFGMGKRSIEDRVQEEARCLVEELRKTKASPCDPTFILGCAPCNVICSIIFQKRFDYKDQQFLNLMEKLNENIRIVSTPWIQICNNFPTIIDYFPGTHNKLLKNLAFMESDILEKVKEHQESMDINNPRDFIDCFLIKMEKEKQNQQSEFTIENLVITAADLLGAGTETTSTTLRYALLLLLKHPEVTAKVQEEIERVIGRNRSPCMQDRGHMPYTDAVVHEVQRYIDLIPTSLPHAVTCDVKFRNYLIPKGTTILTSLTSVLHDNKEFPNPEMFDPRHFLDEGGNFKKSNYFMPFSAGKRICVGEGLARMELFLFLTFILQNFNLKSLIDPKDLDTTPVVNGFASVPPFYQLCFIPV
TEST_READOUT: IC50 (µM)
Value expressed in µM; do not type the unit.

// IC50 value for O=C(Cc1cncc(-n2cc(Cl)c3cc(Cl)cc(Cl)c32)c1)N[C@@H]1COC[C@H]1O [Compound 661] : 18.5

* * *

biological target: opioid delta receptor (Homo sapiens, UniProt P41143); construct: Eurofins DiscoverX, USA; assay: Functional selectivity panel, opioid delta receptor
Sequence (P41143 whole entry): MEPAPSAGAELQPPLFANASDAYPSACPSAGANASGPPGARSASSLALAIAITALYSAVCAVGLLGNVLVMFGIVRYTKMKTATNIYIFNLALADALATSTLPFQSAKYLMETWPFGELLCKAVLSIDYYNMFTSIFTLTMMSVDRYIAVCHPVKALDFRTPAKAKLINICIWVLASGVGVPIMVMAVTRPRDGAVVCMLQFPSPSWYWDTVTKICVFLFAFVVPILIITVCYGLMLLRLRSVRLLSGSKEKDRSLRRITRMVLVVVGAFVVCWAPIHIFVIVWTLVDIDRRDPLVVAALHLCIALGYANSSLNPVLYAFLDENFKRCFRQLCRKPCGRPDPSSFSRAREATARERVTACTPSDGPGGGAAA
TEST_READOUT: IC50 (µM)
Value expressed in µM; do not type the unit.

// IC50 value for O=C(Cc1cncc(-n2cc(Cl)c3cc(Cl)cc(Cl)c32)c1)N[C@@H]1COC[C@H]1O : 10

* * *

Target: CYP2C8 (Homo sapiens, UniProt P10632)
Construct: pre-incubation of the human liver microsomes with the test compound; tissue Corning; host or cells: human liver microsomes
Sequence (P10632 1-490): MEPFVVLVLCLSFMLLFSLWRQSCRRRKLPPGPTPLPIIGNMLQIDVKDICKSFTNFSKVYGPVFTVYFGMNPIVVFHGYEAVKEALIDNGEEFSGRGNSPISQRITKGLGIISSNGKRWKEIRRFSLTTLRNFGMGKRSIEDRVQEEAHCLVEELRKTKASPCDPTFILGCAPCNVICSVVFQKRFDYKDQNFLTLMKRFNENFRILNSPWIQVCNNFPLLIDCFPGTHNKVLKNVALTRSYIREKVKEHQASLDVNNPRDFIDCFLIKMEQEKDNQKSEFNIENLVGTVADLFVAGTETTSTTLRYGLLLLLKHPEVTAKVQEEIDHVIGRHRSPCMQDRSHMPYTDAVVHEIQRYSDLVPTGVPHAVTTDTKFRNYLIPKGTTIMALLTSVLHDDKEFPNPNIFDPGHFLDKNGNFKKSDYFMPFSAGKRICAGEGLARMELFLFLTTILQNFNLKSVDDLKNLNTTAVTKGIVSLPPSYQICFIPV
Test: CYP inhibition / time-dependent inhibition, CYP2C8_Amodiaquine
Assay type: in vitro ADME
Settings: role: inhibitor; Table 9; read-out: CYP inhibition IC50 CYP2C8
TEST_READOUT: pIC50
Give only the number. pIC50 is defined as minus log10 of concentration in molar units.

Reported CYP2C8 (Homo sapiens, UniProt P10632) pIC50 for item O=C(Cc1nccc(-n2cc(Cl)c3cc(Cl)cc(Cl)c32)n1)NC1COCC1O (stereo not shown) [Compound 760] was 4.31

* * *

assay: CYP inhibition / time-dependent inhibition, CYP3A4_Testosterone; type: in vitro ADME; conditions: human, liver microsomes, role: inhibitor; (+)NADPH pre-incubation; substrate testosterone
TEST_READOUT: IC50 at 0.5 h (µM)
Value expressed in µM; do not type the unit.

// IC50 at 0.5 h value for O=C(Cc1cncc(-n2cc(Cl)c3cc(Cl)cc(Cl)c32)c1)N[C@@H]1COC[C@H]1O [Compound 661] : 7.36

* * *

Biological target: CYP2B6 (Homo sapiens)
Construct: pre-incubation of the human liver microsomes with the test compound; tissue Corning; host or cells: human liver microsomes
Sequence (P20813 1-491): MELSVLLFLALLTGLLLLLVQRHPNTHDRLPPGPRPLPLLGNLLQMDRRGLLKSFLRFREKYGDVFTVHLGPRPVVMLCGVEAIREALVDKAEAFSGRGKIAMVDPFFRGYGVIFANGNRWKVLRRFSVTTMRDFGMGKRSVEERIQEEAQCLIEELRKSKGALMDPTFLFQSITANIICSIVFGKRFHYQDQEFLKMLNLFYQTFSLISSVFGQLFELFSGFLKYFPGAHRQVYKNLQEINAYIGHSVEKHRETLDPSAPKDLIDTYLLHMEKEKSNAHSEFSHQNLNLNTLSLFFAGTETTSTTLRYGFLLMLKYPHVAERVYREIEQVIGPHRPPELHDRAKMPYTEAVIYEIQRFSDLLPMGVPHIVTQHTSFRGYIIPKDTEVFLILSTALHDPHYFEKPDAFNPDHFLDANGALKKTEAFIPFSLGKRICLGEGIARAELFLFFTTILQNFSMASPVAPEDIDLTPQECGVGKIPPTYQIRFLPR
Experiment: CYP inhibition / time-dependent inhibition, CYP2B6_Bupropion
Format: in vitro ADME
Conditions: role: inhibitor; Table 9; read-out: CYP inhibition IC50 CYP2B6
TEST_READOUT: pIC50
Give only the number. pIC50 is defined as minus log10 of concentration in molar units.

// pIC50 value for O=C(Cc1nccc(-n2cc(Cl)c3cc(Cl)cc(Cl)c32)n1)NC1COCC1O (stereo not shown) : 4.46
